Recorded values, source patent US20120207760A1.

target: recombinant homotrimeric HA, A/South Carolina/1/18 H1N1 (Influenza A virus A/South Carolina/1/18 (H1N1)); experiment: trimeric HA microarray, transfection set 3; conditions: remark: other sources report otherwise
I'd appreciate it if you could supply Trimeric HA Binding RLU values for the items below.
Number only, in RLU; omit the unit.

Quote Trimeric HA Binding RLU reported for TCN-504 (3251_K17) (antibody, V domains shown) VH: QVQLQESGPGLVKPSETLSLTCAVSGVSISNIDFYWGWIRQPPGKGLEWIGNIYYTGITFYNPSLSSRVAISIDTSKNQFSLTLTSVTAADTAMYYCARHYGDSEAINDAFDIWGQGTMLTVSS VL: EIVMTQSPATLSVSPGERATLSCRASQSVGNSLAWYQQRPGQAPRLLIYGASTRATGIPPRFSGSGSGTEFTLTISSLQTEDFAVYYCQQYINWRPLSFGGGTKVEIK please. 27600

Quote Trimeric HA Binding RLU reported for TCN-533 (5256_A17) (antibody, V domains shown) VH: QVQLVQSGADVKKPGSSVTVSCKASGGSFSNYGINWVRQAPGQGLEWMGGIIPLINAPNYAPKFQGRVTITADMFSNIVSLQLTSLRTDDTAVYYCARRKMTTAIDYWGQGTLVTVSS VL: QPVLSQPPSASASLGASVTLTCTLSSGFDNYQVAWYQQRPGKGPRFVMRVGNGGNVASKGDGIPDRFSVSGSGLNRYLTIKNIQEDDESDYYCGADHGSGNNFVSPYVFGGGTKLTVL please. 16400

Quote Trimeric HA Binding RLU reported for TCN-529 (5297_H01) (antibody, V domains shown) VH: QITLRESGPTLVKPTQTLTLTCTFSGFSLSTNGVNVGWIRQPPGKALEWLALIYWDDDKRYSPSLKRRLTITKDTSKNQVVLTLTNMDPVDTATYYCAHRPDFYGDFEYWGPGTLVTVSS VL: QSALTQPASVSGSPGQSITISCTGSSSDIGGYNYVSWYQQHPGKAPKLMIYDVNNRPSGVSNRFSGSKSGNTASLTISGLQTDDEADYYCGSYTGSPHYVFGTGTKVTVL please. 158
